# key: entry, value: pEC50
- TARGET_UNDER_TEST: JAK3 (catalytic domain, His-tag) (Homo sapiens, UniProt P52333)
- Construct: All four purified enzymes contain only the catalytic domain; His (N); purchased Carna Biosciences, Inc; host or cells: baculovirus expression system
- Sequence (P52333 822-1111 limits assumed): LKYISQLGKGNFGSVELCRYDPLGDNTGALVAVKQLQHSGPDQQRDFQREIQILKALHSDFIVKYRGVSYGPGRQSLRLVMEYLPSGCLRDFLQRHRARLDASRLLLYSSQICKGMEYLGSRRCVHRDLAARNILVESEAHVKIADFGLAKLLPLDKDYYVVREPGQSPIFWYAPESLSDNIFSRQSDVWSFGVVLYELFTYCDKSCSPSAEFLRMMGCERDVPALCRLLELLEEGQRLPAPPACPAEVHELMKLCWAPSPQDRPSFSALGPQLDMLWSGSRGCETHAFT
- TEST_METHOD_NOTES: JAK kinase assay (HTRF, phosphorylation of TK substrate-biotin), JAK3
- Assay type: biochemical
- MEASUREMENT_CONDITIONS: HTRF assay, ATP at Km (2 μM); read-out: JAK3 kinase inhibitory activity (EC50 indicator)
pEC50: −log10 of the molar value.

Please review the following examples before continuing.
[
  {
    "CHEMICAL_STRING": "COC(=O)c1cc2c(N3CCN(C(=O)CCC#N)C4(CC4)C3)ncnc2[nH]1",
    "PROPERTY_LABEL": "pEC50",
    "VAL": "< 6.30"
  },
  {
    "CHEMICAL_STRING": "Cc1c[nH]c2ncnc(N3CCN(C(=O)Cc4ccc(C(F)(F)F)cc4)C4(CC4)C3)c12",
    "PROPERTY_LABEL": "pEC50",
    "VAL": "> 7.00"
  },
  {
    "CHEMICAL_STRING": "CC(C)CNS(=O)(=O)c1csc(C(=O)N2CCN(c3ncnc4[nH]ccc34)CC23CC3)c1",
    "PROPERTY_LABEL": "pEC50",
    "VAL": "6.30 to 7.00"
  },
  {
    "CHEMICAL_STRING": "O=C(c1cccnc1)N1CCN(c2ccnc3[nH]ccc23)CC12CC2",
    "PROPERTY_LABEL": "pEC50",
    "VAL": "< 6.30"
  },
  {
    "CHEMICAL_STRING": "N#Cc1cccc(C(=O)N2CCN(c3ccnc4[nH]ccc34)CC23CC3)c1",
    "PROPERTY_LABEL": "pEC50",
    "VAL": "6.30 to 7.00"
  }
]

q: For the compound N#CCCCC(=O)N1CCN(c2ncnc3[nH]ccc23)CC12CC2 , what pEC50 is on record?
a: > 7.00

q: For the compound COC(=O)c1cc2c(N3CCN(C(=O)Cc4ccc(F)cc4)C4(CC4)C3)ncnc2[nH]1 , what pEC50 is on record?
a: < 6.30

q: For the compound N#Cc1ccccc1C(=O)N1[C@@H]2CC[C@@H]1CN(c1ncnc3[nH]ccc13)C2 , what pEC50 is on record?
a: 6.30 to 7.00

----------
# key: entry, value: pEC50
- TARGET_UNDER_TEST: JAK3 (catalytic domain, His-tag) (Homo sapiens)
- Construct: All four purified enzymes contain only the catalytic domain; His (N); purchased Carna Biosciences, Inc; host or cells: baculovirus expression system
- TEST_METHOD_NOTES: JAK kinase assay (HTRF, phosphorylation of TK substrate-biotin), JAK3
- Format: biochemical
- MEASUREMENT_CONDITIONS: HTRF assay, ATP at Km (2 μM); read-out: JAK3 kinase inhibitory activity (EC50 indicator)
pEC50: −log10 of the molar value.

Please review the following examples before continuing.
[
  {
    "CHEMICAL_STRING": "O=C(c1cc(O)cs1)N1CCN(c2ncnc3[nH]ccc23)CC12CC2",
    "TARGET_UNDER_TEST": "JAK3 (catalytic domain, His-tag) (Homo sapiens)",
    "pEC50": "> 7.00"
  },
  {
    "CHEMICAL_STRING": "Cc1cc(C(=O)N2CCN(c3ncnc4[nH]ccc34)CC23CC3)ccc1S(C)(=O)=O",
    "TARGET_UNDER_TEST": "JAK3 (catalytic domain, His-tag) (Homo sapiens)",
    "pEC50": "6.30 to 7.00"
  },
  {
    "CHEMICAL_STRING": "CCCNS(=O)(=O)c1ccc(C(=O)N2CCN(c3ncnc4[nH]ccc34)CC23CC3)cc1",
    "TARGET_UNDER_TEST": "JAK3 (catalytic domain, His-tag) (Homo sapiens)",
    "pEC50": "> 7.00"
  }
]

q: For the compound N#Cc1ccc2[nH]c(C(=O)N3CCN(c4ncnc5[nH]ccc45)CC34CC4)cc2c1 , what pEC50 is on record?
a: > 7.00

----------
- TARGET_UNDER_TEST: JAK2 (catalytic domain, His-tag) (Homo sapiens)
- Construct: All four purified enzymes contain only the catalytic domain; His (N); purchased Carna Biosciences, Inc; host or cells: baculovirus expression system
- Sequence (O60674 849-1124 limits assumed): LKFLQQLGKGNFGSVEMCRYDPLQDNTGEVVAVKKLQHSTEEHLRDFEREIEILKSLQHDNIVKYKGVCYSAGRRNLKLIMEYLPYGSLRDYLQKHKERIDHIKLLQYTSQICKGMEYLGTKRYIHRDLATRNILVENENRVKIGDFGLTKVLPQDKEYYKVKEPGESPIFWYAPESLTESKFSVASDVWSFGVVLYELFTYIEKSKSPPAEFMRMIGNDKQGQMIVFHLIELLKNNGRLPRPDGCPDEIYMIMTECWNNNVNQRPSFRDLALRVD
- TEST_METHOD_NOTES: JAK kinase assay (HTRF, phosphorylation of TK substrate-biotin), JAK2
- Type: biochemical
- MEASUREMENT_CONDITIONS: HTRF assay, ATP at Km (4 μM); read-out: JAK2 kinase inhibitory activity (EC50 indicator)
PROPERTY_LABEL: EC50

Please review the following examples before continuing.
[
  {
    "CHEMICAL_STRING": "N#CCCCS(=O)(=O)c1ccc(C(=O)N2CCN(c3ncnc4[nH]ccc34)CC23CC3)cc1",
    "VAL": "< 100 nM"
  },
  {
    "CHEMICAL_STRING": "O=C(c1ccncc1)N1CCN(c2ccnc3[nH]ccc23)CC12CC2",
    "VAL": "100 to 500 nM"
  },
  {
    "CHEMICAL_STRING": "COCCS(=O)(=O)c1ccc(C(=O)N2CCN(c3ncnc4[nH]ccc34)CC23CC3)cc1",
    "VAL": "< 100 nM"
  }
]

q: For the compound N#Cc1ccc(C(=O)N2CCN(c3nc(N)nc4[nH]ccc34)CC23CC3)cc1 , what EC50 is on record?
a: < 100 nM

q: For the compound COc1cc(C(=O)N2CCN(c3ncnc4[nH]ccc34)CC23CC3)ccc1S(N)(=O)=O , what EC50 is on record?
a: < 100 nM

q: For the compound COc1cnc2[nH]ccc2c1N1CCN(C(=O)c2cnccn2)C2(CC2)C1 , what EC50 is on record?
a: 100 to 500 nM

q: For the compound O=C(c1ccc2[nH]c(=O)ccc2c1)N1[C@@H]2CC[C@@H]1CN(c1ncnc3[nH]ccc13)C2 , what EC50 is on record?
a: < 100 nM

q: For the compound O=C(c1csc2ccccc12)N1CCN(c2ccnc3[nH]ccc23)CC12CC2 , what EC50 is on record?
a: < 100 nM

----------
- TARGET_UNDER_TEST: TYK2 (aa 871-1187, catalytic domain, GST-tag) (Homo sapiens, UniProt P29597)
- Construct: JAK1 (aa 850-1154) and TYK2 (aa 871-1187) are expressed with an N-terminally fused GST-tag; GST (N); purchased Carna Biosciences, Inc; host or cells: baculovirus expression system
- Sequence (P29597 871-1187): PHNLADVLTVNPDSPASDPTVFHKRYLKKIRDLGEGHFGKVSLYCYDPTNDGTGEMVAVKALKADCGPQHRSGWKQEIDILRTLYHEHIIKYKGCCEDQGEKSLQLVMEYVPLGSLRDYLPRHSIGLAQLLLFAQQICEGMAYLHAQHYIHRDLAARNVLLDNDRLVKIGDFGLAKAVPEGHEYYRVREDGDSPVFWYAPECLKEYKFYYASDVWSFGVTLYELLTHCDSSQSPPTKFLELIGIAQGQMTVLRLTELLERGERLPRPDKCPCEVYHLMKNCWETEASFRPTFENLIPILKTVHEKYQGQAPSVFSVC
- TEST_METHOD_NOTES: JAK kinase assay (HTRF, phosphorylation of TK substrate-biotin), TYK2
- Format: biochemical
- MEASUREMENT_CONDITIONS: HTRF assay, ATP at Km (13 μM); read-out: TYK2 kinase inhibitory activity (EC50 indicator)
# key: entry, value: EC50

[
  {
    "CHEMICAL_STRING": "N#CCCCC(=O)N1CCN(c2nc(N)nc3[nH]ccc23)CC12CC2",
    "VAL": "> 500 nM"
  },
  {
    "CHEMICAL_STRING": "N#Cc1ccc(C(=O)N2CCN(c3nc(N)nc4[nH]ccc34)CC23CC3)cc1",
    "VAL": "> 500 nM"
  },
  {
    "CHEMICAL_STRING": "O=C(c1ccccc1)N1[C@@H]2CC[C@@H]1CN(c1ncnc3[nH]ccc13)C2",
    "VAL": "> 500 nM"
  },
  {
    "CHEMICAL_STRING": "N#CCc1cccc(CC(=O)N2CCN(c3nc(N)nc4[nH]ccc34)CC23CC3)c1",
    "VAL": "> 500 nM"
  },
  {
    "CHEMICAL_STRING": "COC(=O)c1cc2c(N3CCN(C(=O)Cc4ccc(C(F)(F)F)cc4)C4(CC4)C3)ncnc2[nH]1",
    "VAL": "> 500 nM"
  }
]

q: Please state recorded EC50 (tested on TYK2 (aa 871-1187, catalytic domain, GST-tag) (Homo sapiens, UniProt P29597)) of O=C(c1cc2ccc(F)cc2[nH]1)N1CCN(c2ncnc3[nH]ccc23)CC12CC2
a: 100 to 500 nM

q: Please state recorded EC50 (tested on TYK2 (aa 871-1187, catalytic domain, GST-tag) (Homo sapiens, UniProt P29597)) of O=C(c1nsc2cc(Br)ccc12)N1[C@@H]2CC[C@@H]1CN(c1ncnc3[nH]ccc13)C2
a: > 500 nM

q: Please state recorded EC50 (tested on TYK2 (aa 871-1187, catalytic domain, GST-tag) (Homo sapiens, UniProt P29597)) of O=C(c1cccc(OC(F)(F)F)c1)N1[C@@H]2CC[C@@H]1CN(c1ncnc3[nH]ccc13)C2
a: > 500 nM

q: Please state recorded EC50 (tested on TYK2 (aa 871-1187, catalytic domain, GST-tag) (Homo sapiens, UniProt P29597)) of COc1cnc2[nH]ccc2c1N1CCN(C(=O)c2cc3cc(C#N)ccc3[nH]2)C2(CC2)C1
a: > 500 nM

q: Please state recorded EC50 (tested on TYK2 (aa 871-1187, catalytic domain, GST-tag) (Homo sapiens, UniProt P29597)) of Cc1c[nH]c2ncnc(N3CCN(C(=O)Cc4cccc(C#N)c4)C4(CC4)C3)c12
a: > 500 nM

q: Please state recorded EC50 (tested on TYK2 (aa 871-1187, catalytic domain, GST-tag) (Homo sapiens, UniProt P29597)) of Cc1c(C(=O)N2[C@H]3CC[C@H]2CN(c2ncnc4[nH]ccc24)C3)sc2ccccc12
a: > 500 nM

q: Please state recorded EC50 (tested on TYK2 (aa 871-1187, catalytic domain, GST-tag) (Homo sapiens, UniProt P29597)) of NC(=O)c1ccc(C(=O)N2[C@@H]3CC[C@@H]2CN(c2ncnc4[nH]ccc24)C3)cc1
a: 100 to 500 nM
